Data origin, for the record: paper PMC4467886

Assignment: determine reported pKi for the given molecules.
# tgt: UniProtKB Q9D110
# Sequence (Q9D110 2-203): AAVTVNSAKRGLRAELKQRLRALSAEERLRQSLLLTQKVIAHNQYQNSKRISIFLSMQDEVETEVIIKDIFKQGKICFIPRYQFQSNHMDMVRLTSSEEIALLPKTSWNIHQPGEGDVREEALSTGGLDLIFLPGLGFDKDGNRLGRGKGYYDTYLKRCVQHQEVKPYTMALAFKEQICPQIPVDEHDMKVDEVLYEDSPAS
Hey, just a heads up that pKi is the negative log base 10 of the concentration in molar.

Looking up Nc1nc2c(c(=O)[nH]1)C[C@@H](CCc1ccc(C(=O)N[C@@H](CCC(=O)O)C(=O)O)cc1)CN2 [Lometrexol] , I found its pKi recorded as 5.05

Looking up Nc1nc2c(c(=O)[nH]1)C[C@@H](CCc1ccc(C(=O)N[C@@H](CCC(=O)O)C(=O)O)s1)CN2 , I found its pKi recorded as 5.22

Looking up Nc1nc2[nH]cc(CCc3ccc(C(=O)N[C@@H](CCC(=O)O)C(=O)O)cc3)c2c(=O)[nH]1 , I found its pKi recorded as 4.32
